- Test Target: BSA+oligo-Lys conjugate (oligo-Lys peptide K14C coupled to bovine serum albumin) (bovine) (UniProt P02769)
- Assay Explanation: MACN-labeled peptide in plasma matrix, 30 min in tubes coated with oligo-Lys-BSA to which the oligo-Asp-anti-PCT antibody was bonded; luminometer
Where no end group is shown, it is not given here.
Value Type: percentage of non-specific binding relative to the total activity (%)

A. PEVPPWTGEVSPAQRDGGALGGGGRGPWDSSDRSALLKSKL (also: MACN acridinium label, site not given here) [MACN-labeled peptide PPL41 (derived from NT-proANP)]
B. ATQLDGPAGALLLRLVQLAGAPEPFEPAQPDAY (also: MACN acridinium label, site not given here) [MACN-labeled peptide PAY33 (derived from copeptin)]
Input line: Which record shows the lower percentage of non-specific binding relative to the total activity: the first, A , or the second, B ? Give the chosen item's label as your response.
Output line: A
(A: 3.1%, B: 6.5%)
